Listing of entries alongside the reported Act. (%): activation rate of test substance.
Biological target: human OX2R (Homo sapiens, UniProt O43614)
Construct: expressed in transfected cells
Sequence (O43614 whole entry): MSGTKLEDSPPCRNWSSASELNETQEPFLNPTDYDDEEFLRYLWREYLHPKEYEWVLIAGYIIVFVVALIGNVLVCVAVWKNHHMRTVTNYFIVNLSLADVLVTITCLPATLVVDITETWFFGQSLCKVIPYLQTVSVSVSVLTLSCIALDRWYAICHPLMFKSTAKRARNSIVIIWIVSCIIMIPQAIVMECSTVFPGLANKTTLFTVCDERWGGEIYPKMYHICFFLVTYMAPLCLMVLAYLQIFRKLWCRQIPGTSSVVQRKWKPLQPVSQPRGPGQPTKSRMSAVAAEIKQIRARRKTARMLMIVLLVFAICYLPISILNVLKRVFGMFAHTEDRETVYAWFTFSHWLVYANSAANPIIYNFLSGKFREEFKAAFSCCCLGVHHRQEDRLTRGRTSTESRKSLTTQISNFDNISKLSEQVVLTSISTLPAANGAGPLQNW
Assay: Measurement of OX2R agonist activity (intracellular calcium concentration change, Fluo4-AM, FDSS 7000)
Type: cell-based
Conditions: compound concentration 10 μM; human OX2R-expressing CHO-K1 cells; 1 μM human orexin A peptide = 100%, medium alone = 0%
REPORTED_ENDPOINT: Act. (%): activation rate of test substance

{"COMPOUND": "CS(=O)(=O)N[C@H]1CC[C@](Cc2cccc(-c3ccccc3)c2)(C(=O)N2CCCC2C(F)(F)F)C1 (relative stereo)", "UNIT_INFO": "%", "RESULT_NUMBER": 41}
{"COMPOUND": "CON(C)C(=O)[C@@]1(Cc2cccc(-c3ccco3)c2)CC[C@H](NS(C)(=O)=O)C1 (relative stereo)", "UNIT_INFO": "%", "RESULT_NUMBER": 93}
{"COMPOUND": "CS(=O)(=O)N[C@H]1CC[C@](Cc2cccc(-c3ccccc3)c2)(C(=O)N2CCCO2)C1 (relative stereo)", "UNIT_INFO": "%", "RESULT_NUMBER": 70}
{"COMPOUND": "CON(C)C(=O)[C@@]1(Cc2cccc(-c3ncc(F)cn3)c2)C[C@H](C)[C@H](NS(C)(=O)=O)C1 (relative stereo)", "UNIT_INFO": "%", "RESULT_NUMBER": 93}
{"COMPOUND": "CON(C)C(=O)[C@@]1(Cc2cc(-c3ncc(F)cn3)ccc2F)C[C@H](F)[C@H](NS(C)(=O)=O)C1 (relative stereo)", "UNIT_INFO": "%", "RESULT_NUMBER": 90}
{"COMPOUND": "CO[C@H]1CCN(C(=O)[C@@]2(Cc3cccc(-c4ccccc4)c3)CC[C@H](NS(C)(=O)=O)C2)C1 (relative stereo)", "UNIT_INFO": "%", "RESULT_NUMBER": 27}
{"COMPOUND": "CON(C)C(=O)[C@@]1(Cc2cccc(-n3nccn3)c2)CC[C@H](NS(C)(=O)=O)C1 (relative stereo)", "UNIT_INFO": "%", "RESULT_NUMBER": 87}
{"COMPOUND": "CON(C)C(=O)[C@@]1(Cc2ccc(F)c(-c3ncc(F)cn3)c2)C[C@@H](F)[C@H](NS(C)(=O)=O)C1", "UNIT_INFO": "%", "RESULT_NUMBER": 101}
{"COMPOUND": "CON(C)C(=O)C1(Cc2cccc(-c3ncccn3)c2)CCC(NS(C)(=O)=O)C1 (single isomer, unassigned) [Example 46]", "UNIT_INFO": "%", "RESULT_NUMBER": 93}
{"COMPOUND": "CON(C)C(=O)[C@@]1(Cc2ccc(F)c(-c3ncc(F)cn3)c2)CC[C@H](NS(=O)(=O)C2COC2)C1", "UNIT_INFO": "%", "RESULT_NUMBER": 90}
{"COMPOUND": "CON(C)C(=O)[C@@]1(Cc2ccc(C(F)(F)F)c(-c3ncc(F)cn3)c2)CC[C@H](NS(C)(=O)=O)C1 (relative stereo)", "UNIT_INFO": "%", "RESULT_NUMBER": 63}
{"COMPOUND": "CON(C)C(=O)[C@@]1(Cc2cccc(-c3ncccn3)c2)C[C@@H](F)[C@H](NS(C)(=O)=O)C1 (relative stereo)", "UNIT_INFO": "%", "RESULT_NUMBER": 89}
{"COMPOUND": "CON(C)C(=O)[C@@]1(Cc2cccc(-c3ncc(F)cn3)c2)C[C@H](F)[C@H](NS(=O)(=O)C2CC2)C1", "UNIT_INFO": "%", "RESULT_NUMBER": 94}
{"COMPOUND": "CON(C)C(=O)[C@@]1(Cc2ccc(F)c(-c3ncc(Cl)cn3)c2)CC[C@H](NS(C)(=O)=O)C1 (relative stereo)", "UNIT_INFO": "%", "RESULT_NUMBER": 83}
{"COMPOUND": "CON(C)C(=O)[C@]1(Cc2cccc(-c3ncccn3)c2)C[C@@H](NS(C)(=O)=O)C(F)(F)C1 [Example 65]", "UNIT_INFO": "%", "RESULT_NUMBER": 86}
{"COMPOUND": "CON(C)C(=O)[C@@]1(Cc2ccc(F)c(-c3ncc(F)cn3)c2)C[C@H](F)[C@H](NS(=O)(=O)N(C)C)C1 (relative stereo)", "UNIT_INFO": "%", "RESULT_NUMBER": 90}
{"COMPOUND": "CON(C)C(=O)[C@@]1(Cc2ccc(O)c(-c3ncc(F)cn3)c2)CC[C@H](NS(C)(=O)=O)C1", "UNIT_INFO": "%", "RESULT_NUMBER": 106}
{"COMPOUND": "CS(=O)(=O)N[C@H]1CC[C@](Cc2cccc(-c3ccccc3)c2)(C(=O)NCC(F)(F)F)C1 (relative stereo)", "UNIT_INFO": "%", "RESULT_NUMBER": 33}
{"COMPOUND": "CON(C)C(=O)[C@@]1(Cc2cc(-c3ncccn3)ccc2F)CC[C@H](NS(C)(=O)=O)C1 (relative stereo)", "UNIT_INFO": "%", "RESULT_NUMBER": 99}
{"COMPOUND": "CON(C)C(=O)[C@@]1(Cc2ccc(F)c(-c3ccccc3F)c2)CC[C@H](NS(C)(=O)=O)C1 (relative stereo)", "UNIT_INFO": "%", "RESULT_NUMBER": 93}
{"COMPOUND": "CON(C)C(=O)[C@@]1(Cc2ccc(F)c(-c3ncc(F)cn3)c2)CC[C@H](NS(=O)(=O)C(F)F)C1", "UNIT_INFO": "%", "RESULT_NUMBER": 98}
{"COMPOUND": "CCS(=O)(=O)N[C@@H]1C[C@@](Cc2ccc(Cl)c(-c3ncc(F)cn3)c2)(C(=O)N(C)OC)C[C@@H]1F", "UNIT_INFO": "%", "RESULT_NUMBER": 96}
{"COMPOUND": "CON(C)C(=O)[C@@]1(Cc2cccc(-c3ncccn3)c2)C[C@H](F)[C@H](NS(C)(=O)=O)C1 (relative stereo)", "UNIT_INFO": "%", "RESULT_NUMBER": 83}
{"COMPOUND": "COCCNC(=O)[C@@]1(Cc2cccc(-c3ccccc3)c2)CC[C@H](NS(C)(=O)=O)C1 (relative stereo)", "UNIT_INFO": "%", "RESULT_NUMBER": 44}
{"COMPOUND": "C[C@H]1CCCN1C(=O)[C@@]1(Cc2cccc(-c3ccccc3)c2)CC[C@H](NS(C)(=O)=O)C1 (relative stereo)", "UNIT_INFO": "%", "RESULT_NUMBER": 75}
{"COMPOUND": "CON(C)C(=O)[C@@]1(Cc2cccc(-c3ccccc3)c2)CC[C@H](NS(C)(=O)=O)C1 (relative stereo)", "UNIT_INFO": "%", "RESULT_NUMBER": 84}
